System: Puccinia recondita tritici (leaf rust)
METHOD_SUMMARY: Plant pathology screen (Test 1), leaf rust on wheat
CONDITION_NOTES: in Triticum aestivum, foliar, read-out: LEAF RUST control rating

{"columns": ["COMPOUND", "pest or weed control at 400 µg/mL"],
 "data": [
  ["Cc1oc2ncnc(Sc3ccc(F)cc3)c2c1C [Example 56]", "20 to 89%"],
  ["CCCC(C)(CC)Oc1ccc(CCOc2ncnc3oc(C)c(C)c23)cc1 (stereo not shown) [Example 74]", "0 to 19%"],
  ["Cc1oc2ncnc(OC3CN4CCC3CC4)c2c1C (stereo not shown) [Example 17]", "0 to 19%"],
  ["Cc1oc2ncn(CCc3cccc(C(F)(F)F)c3)c(=N)c2c1C [Example 81]", "90 to 100%"],
  ["Cc1oc2ncnc(NCCC3CCC4CCCCC4C3)c2c1C (stereo not shown) [Example 18]", "0 to 19%"],
  ["COc1ccc(CCNc2ncnc3oc(C)cc23)cc1 [Example 4]", "90 to 100%"],
  ["Cc1oc2ncnc(NC(C)(C)Cc3ccccc3)c2c1C [Example 77]", "90 to 100%"],
  ["Cc1oc2ncnc(NCCc3ccc(OC(F)(F)C(F)F)cc3)c2c1C [Example 47]", "90 to 100%"],
  ["Cc1oc2ncnc(NCC(Cc3ccc(F)cc3)c3ccc(Cl)cc3)c2c1C (stereo not shown) [Example 26]", "0 to 19%"],
  ["Cc1oc2ncnc(NCCc3ccc(OC(F)(F)F)cc3)c2c1C [Example 68]", "20 to 89%"]
]}

* * *

System: Puccinia recondita tritici (leaf rust)
METHOD_SUMMARY: Plant pathology screen (Test 1), leaf rust on wheat
CONDITION_NOTES: in Triticum aestivum, foliar, read-out: LEAF RUST control rating
ASSAY_METRIC: pest or weed control at 400 µg/mL

{"columns": ["COMPOUND", "RESULT"],
 "data": [
  ["Cc1oc2ncnc(Oc3ccc(OC(F)(F)F)cc3)c2c1C", "0 to 19%"],
  ["Cc1oc2ncnc(OCCc3ccc(OC(F)(F)F)cc3)c2c1C", "20 to 89%"],
  ["Cc1ccc(CCNc2ncnc3oc(C)c(C)c23)cc1", "90 to 100%"],
  ["COc1ccccc1Oc1ncnc2oc(C)c(C)c12", "0 to 19%"],
  ["Cc1oc2ncnc(OCCc3ccc(Oc4ccc(C(F)(F)F)cc4)cc3)c2c1C", "90 to 100%"],
  ["Cc1oc2ncnc(NCCc3ccccc3)c2c1C", "90 to 100%"],
  ["Cc1oc2ncnc(OCCc3ccc(-c4ccccc4)cc3)c2c1C", "0 to 19%"],
  ["Cc1coc2ncnc(NCCc3ccc4ccccc4c3)c12", "90 to 100%"],
  ["Cc1cc2c(OCCc3ccc(OCc4ccccc4)cc3)ncnc2o1", "90 to 100%"],
  ["Cc1oc2ncnc(OCC3CCC(C)O3)c2c1C (stereo not shown)", "0 to 19%"]
]}

* * *

This section presents compounds with their documented mortality at 400 ppm values.
System: southern armyworm (Spodopetra eridania Cramer)
METHOD_SUMMARY: Mite/insect screen, Southern armyworm
Assay type: in vivo
CONDITION_NOTES: Spodoptera eridania; rate 400 ppm, sprayed leaves; read-out: SAW results (percent mortality)

{"columns": ["COMPOUND", "mortality at 400 ppm (%)"],
 "data": [
  ["Cc1coc2ncn(CCc3ccc4ccccc4c3)c(=N)c12 [Example 79]", 0],
  ["COc1ccc(CCOc2ncnc3oc(C)cc23)cc1 [Example 40]", 0],
  ["Cc1oc2ncnc(OCC3CCC(C)O3)c2c1C (stereo not drawn) [Example 60]", 0],
  ["Cc1oc2ncnc(NCCc3ccc(OCC(F)(F)F)cc3)c2c1C [Example 73]", 100],
  ["CCOc1ccc(CCNc2ncnc3oc(C)c(C)c23)cc1 [Example 3]", 0],
  ["Cc1coc2ncnc(NCCc3ccc(Cl)cc3)c12 [Example 11]", 60],
  ["COc1ccc(CCNc2ncnc3oc(C)c(C)c23)cc1 [Example 1]", 0],
  ["Cc1oc2ncnc(OCCc3ccc(C(C)(C)C)cc3)c2c1C [Example 50]", 0],
  ["COc1ccc(CCn2cnc3oc(C)c(C)c3c2=N)cc1 [Example 80]", 0],
  ["Cc1cc2c(OCCc3ccc(OCc4ccccc4)cc3)ncnc2o1 [Example 39]", 0],
  ["Cc1ccc(CCNc2ncnc3oc(C)c(C)c23)cc1 [Example 24]", 0],
  ["Cc1oc2ncnc(OCCc3ccc(OC(F)(F)F)cc3)c2c1C [Example 69]", 0],
  ["Cc1cc2c(OCCC34CC5CC(CC(C5)C3)C4)ncnc2o1 [Example 38]", 0],
  ["Cc1oc2ncnc(OCCN3C[C@@H](C)O[C@H](C)C3)c2c1C (relative stereo) [Example 58]", 0],
  ["Cc1cc2c(Oc3ccc(F)cc3)ncnc2o1 [Example 5]", 0],
  ["Cc1cc2c(OCCc3ccc(C(C)(C)C)cc3)ncnc2o1 [Example 46]", 0],
  ["Cc1cc2c(OCCc3ccc(-c4ccccc4)cc3)ncnc2o1 [Example 7]", 0],
  ["COc1ccccc1CCNc1ncnc2occ(C)c12 [Example 35]", 0],
  ["Cc1oc2ncnc(NCCC3=CCCCC3)c2c1C [Example 72]", 60],
  ["Cc1oc2ncnc(NCCc3ccccc3)c2c1C [Example 12]", 0],
  ["Cc1oc2ncnc(OCCc3ccc(Cl)cc3)c2c1C [Example 53]", 0],
  ["Cc1oc2ncnc(Sc3ccc(F)cc3)c2c1C [Example 56]", 0],
  ["Cc1cc2c(NCCc3cccc(C(F)(F)F)c3)ncnc2o1 [Example 8]", 0],
  ["COc1ccc(CCNc2ncnc3oc(C)c(C)c23)cc1OC [Example 25]", 0],
  ["COc1ccc(Oc2ncnc3oc(C)c(C)c23)cc1 [Example 65]", 0],
  ["Cc1oc2ncnc(OCCc3ccc4ccccc4c3)c2c1C [Example 55]", 0],
  ["COc1ccc(CCNc2ncnc3oc4c(c23)CCCC4)cc1 [Example 30]", 90],
  ["Cc1oc2ncnc(NCCc3ccc(OC(F)(F)F)cc3)c2c1C [Example 68]", 100],
  ["Cc1coc2ncnc(NCCc3ccc4ccccc4c3)c12 [Example 21]", 0],
  ["Cc1oc2ncnc(NC(C)(C)Cc3ccccc3)c2c1C [Example 77]", 0],
  ["Cc1oc2ncnc(OCCN3C[C@@H](C)O[C@@H](C)C3)c2c1C [Example 57]", 0],
  ["Cc1oc2ncnc(Oc3ccc(F)cc3Cl)c2c1C [Example 59]", 0],
  ["Cc1oc2ncnc(NCCc3ccc(Cl)cc3)c2c1C [Example 10]", 0],
  ["Cc1oc2ncnc(OCCc3ccccc3C(F)(F)F)c2c1C [Example 76]", 0],
  ["Cc1oc2ncnc(NCCc3ccc(OC(F)(F)C(F)F)cc3)c2c1C [Example 47]", 0],
  ["Cc1cc2c(NCCc3ccc4ccccc4c3)ncnc2o1 [Example 31]", 80],
  ["Cc1coc2ncnc(NCCc3ccccc3)c12 [Example 19]", 0],
  ["Cc1oc2ncnc(NCCc3ccc4ccccc4c3)c2c1C [Example 22]", 0],
  ["COc1ccc(CCNc2ncnc3occ(C)c23)cc1OC [Example 27]", 0],
  ["Cc1cc2c(OCCc3ccc(C(F)(F)F)cc3)ncnc2o1 [Example 42]", 0],
  ["Cc1oc2ncnc(OCCc3ccc(C(F)(F)F)cc3)c2c1C [Example 54]", 40],
  ["COc1ccc(CCOc2ncnc3oc(C)c(C)c23)cc1 [Example 52]", 0]
]}

* * *

System: Puccinia recondita tritici (leaf rust)
METHOD_SUMMARY: Plant pathology screen (Test 1), leaf rust on wheat
CONDITION_NOTES: in Triticum aestivum, foliar, read-out: LEAF RUST control rating
ASSAY_METRIC: pest or weed control at 400 µg/mL

{"columns": ["COMPOUND_STRUCTURE_STRING", "ASSAY_METRIC", "RESULT"],
 "data": [
  ["COc1ccccc1CCNc1ncnc2occ(C)c12", "pest or weed control at 400 µg/mL", "90 to 100%"],
  ["Cc1cc2c(OCCc3ccc(OC(C)(C)C)cc3)ncnc2o1", "pest or weed control at 400 µg/mL", "90 to 100%"],
  ["COc1ccc(CCn2cnc3oc(C)c(C)c3c2=N)cc1", "pest or weed control at 400 µg/mL", "0 to 19%"],
  ["Cc1cc2c(Oc3ccc(F)cc3)ncnc2o1", "pest or weed control at 400 µg/mL", "90 to 100%"],
  ["Cc1coc2ncn(CCc3ccc4ccccc4c3)c(=N)c12", "pest or weed control at 400 µg/mL", "20 to 89%"],
  ["COc1ccc(CCNc2ncnc3occ(C)c23)cc1", "pest or weed control at 400 µg/mL", "90 to 100%"]
]}
